target: full-length beta-Catenin (Uniprot ID P35222) (Homo sapiens); construct: 10 nM full-length beta-Catenin (Uniprot ID P35222); assay: Fluorescence polarization IC50 (beta-catenin / 5FAM-TCF4 10-53 competition); type: binding; conditions: Table E2-1; read-out: beta-Catenin FP IC50
Sequence (P35222 whole entry): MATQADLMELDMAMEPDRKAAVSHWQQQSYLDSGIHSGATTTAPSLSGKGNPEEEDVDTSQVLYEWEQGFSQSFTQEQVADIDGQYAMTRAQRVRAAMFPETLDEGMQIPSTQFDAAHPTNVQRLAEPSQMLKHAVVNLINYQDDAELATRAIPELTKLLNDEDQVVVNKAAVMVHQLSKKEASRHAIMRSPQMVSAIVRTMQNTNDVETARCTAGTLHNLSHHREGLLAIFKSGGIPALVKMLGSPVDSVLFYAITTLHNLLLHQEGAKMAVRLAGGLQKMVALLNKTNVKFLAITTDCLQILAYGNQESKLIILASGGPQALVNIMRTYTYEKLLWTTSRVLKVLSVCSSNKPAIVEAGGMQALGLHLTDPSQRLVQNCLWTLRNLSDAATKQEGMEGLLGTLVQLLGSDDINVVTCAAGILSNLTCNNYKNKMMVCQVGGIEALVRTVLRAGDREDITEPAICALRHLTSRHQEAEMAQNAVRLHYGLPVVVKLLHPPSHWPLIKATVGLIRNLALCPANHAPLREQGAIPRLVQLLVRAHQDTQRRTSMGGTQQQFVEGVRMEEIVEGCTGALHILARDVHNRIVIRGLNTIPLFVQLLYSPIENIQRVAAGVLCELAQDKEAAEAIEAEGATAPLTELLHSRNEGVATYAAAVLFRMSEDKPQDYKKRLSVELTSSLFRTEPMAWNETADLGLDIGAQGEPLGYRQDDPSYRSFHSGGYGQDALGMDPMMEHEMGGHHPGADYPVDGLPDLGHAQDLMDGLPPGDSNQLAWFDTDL
quantity: IC50 (nM)
The answer is to be given in nM; state only the numeric part.

compound | tested-on | unit-name | IC50
CC(=O)N1CCC[C@]12CC=CCCCC1(CCCC=CCCCCCC[C@@](C)(C(=O)N[C@@H](Cc3ccccc3)C(=O)N[C@@H](Cc3c[nH]c4ccccc34)C(=O)N[C@@H](CCC(N)=O)C(N)=O)NC(=O)[C@H](C(C)C)NC(=O)[C@H](Cc3ccsc3)NC(=O)[C@H](C)NC(=O)[C@H](C)NC(=O)[C@H](CC(=O)O)NC(=O)[C@H](CC(=O)O)NC1=O)NC(=O)[C@H](C)NC(=O)[C@H](CC(=O)O)NC2=O (some centres unmarked) | full-length beta-Catenin (Uniprot ID P35222) (Homo sapiens) | nM | 1750

Query block: Fill in reported IC50 for this entry: CC(=O)N1CCC[C@]12CC=CCCCC1(CCCC=CCCCCCC[C@@](C)(C(=O)N[C@@H](Cc3ccccc3)C(=O)N[C@@H](Cc3c[nH]c4ccccc34)C(=O)N[C@@H](CCC(N)=O)C(N)=O)NC(=O)[C@H](C(C)C)NC(=O)[C@H](Cc3ccco3)NC(=O)[C@H](C)NC(=O)[C@H](C)NC(=O)[C@H](CC(=O)O)NC(=O)[C@H](CC(=O)O)NC1=O)NC(=O)[C@H](C)NC(=O)[C@H](CC(=O)O)NC2=O (some centres unmarked) [I-328]
Result block: 1910

====

We begin with a simple list: items and their reported logD.
assay: CHI Log D procedure; assay type: physicochemical; conditions: pH 7.4, CHI Log D
Provide a numeric answer; units are not to be included.

compound | quantity | reported-result
CC(=O)N1CCC[C@]12CC=CCCCC1(CCCC=CCCCCCC[C@@](C)(C(=O)N[C@@H](CC3CCCC3)C(=O)N[C@@H](Cc3csc4ccccc34)C(=O)N[C@@H](CCC(N)=O)C(N)=O)NC(=O)[C@H](C(C)C)NC(=O)[C@H](Cc3ccccc3)NC(=O)[C@H](C)NC(=O)[C@H](C)NC(=O)[C@H](CCC(=O)O)NC(=O)[C@H](CC(=O)O)NC1=O)NC(=O)[C@H](C)NC(=O)[C@H](CC(=O)O)NC2=O (stereo partly drawn) | logD | 2.64

Query block: Fill in reported logD for this entry: CC(=O)N1CCC[C@]12CC=CCCCC1(CCCC=CCCCOC(=O)N3CC[C@@](C(=O)N[C@@H](Cc4ccsc4)C(=O)N[C@@H](Cc4csc5ccccc45)C(=O)N[C@@H](CCC(N)=O)C(N)=O)(C3)NC(=O)[C@H](CC(N)=O)NC(=O)[C@H](Cc3ccccc3)NC(=O)[C@H](C)NC(=O)[C@H](CCCCNC(=O)c3ccc(-n4cc(CNC(=O)c5ccc6c(c5)C5(OC6=O)c6ccc(O)cc6Oc6cc(O)ccc65)nn4)cc3)NC(=O)[C@H](CC(C)C)NC(=O)[C@H](CC(=O)O)NC1=O)NC(=O)[C@H](CC(C)(C)C)NC(=O)[C@H](CC(=O)O)NC2=O (stereo partly drawn)
Result block: 1.8

Query block: Fill in reported logD for this entry: CC(=O)N1CCC[C@]12CC=CCCCC1(CCCC=CCCCCCC[C@@](C)(C(=O)N[C@@H](Cc3ccccc3)C(=O)N[C@@H](Cc3c[nH]c4ccccc34)C(=O)N[C@@H](CO)C(N)=O)NC(=O)[C@H](C(C)C)NC(=O)[C@H](Cc3ccccc3)NC(=O)[C@H](C)NC(=O)[C@H](C)NC(=O)[C@H](CC(=O)O)NC(=O)[C@H](CC(=O)O)NC1=O)NC(=O)[C@H](C)NC(=O)[C@H](CC(=O)O)NC2=O (single isomer, unassigned)
Result block: 1.86
